Reference source for all entries: a melting point compilation (Tetko et al.; mined from patent text by program, amines drawn as free bases though some values may be those of a salt)

Would you kindly list melting point for each of these compounds?

> print(dat)
                                   compound  property.name  endpoint.result
1  CCc1ccccc1NC(=O)c1ccc(CN2C(=O)C3(COc4cc5c(cc43)CCO5)c3ccccc32)cc1 (stereo not drawn)  melting point    203 to 204 °C
2              Nc1sc2c(c1C(=O)c1cccs1)CCCC2  melting point    115 to 118 °C
3  CN1C2CCC1CC(c1n[nH]c3ccccc13)C2 (stereo not drawn)  melting point    191 to 192 °C
4          CCCOc1ccccc1-c1nc2ncncc2c(=O)n1N  melting point    261 to 262 °C
5  FC(F)(F)c1ccc2nc(-c3csc(Nc4c(Cl)cccc4Cl)n3)[nH]c2c1  melting point    242 to 243 °C
6  CC(=Cc1cnc2nc(N)nc(N)c2c1)c1ccc(C(=O)OC(C)(C)C)cc1  melting point         > 300 °C

Record melting point per entry; entries follow.
1. COc1c(F)c(F)c(N)c2c(=O)c(C(=O)O)cn(C3CC3)c12
2. COc1ccccc1C1=C(C#N)C(c2cccc3nonc23)c2c[nH]nc2N1 (stereo not drawn)

Ans.
1: 291 to 292 °C; 2: 180 °C
